Answer each item with its documented solubility at 3 h.
Assay: Solubility in Simulated Lung Fluid (SLF), saturation shake-flask method
Format: physicochemical
Details: simulated lung fluid (SLF), aqueous with cosolvent or surfactant or cyclodextrin, thermodynamic from solid; SLF with 0.02% v/v Tween 80, pH 6.5, 37° C., time 3 h
Respond with the bare value in µg/mL.

Query: What value of solubility at 3 h has been reported for the following compound? CS(=O)(=O)Nc1ccc(C(=O)O[C@@H](Cc2c(Cl)c[n+]([O-])cc2Cl)c2ccc(OC(F)F)c(OCC3CC3)c2)cc1OCC1CC1 [Crystal Form A, reference compound]
Response: 0.2

Query: What value of solubility at 3 h has been reported for the following compound? CS(=O)(=O)Nc1ccc(C(=O)O[C@@H](Cc2c(Cl)c[n+]([O-])cc2Cl)c2ccc(OC(F)F)c(OCC3CC3)c2)cc1OCC1CC1 (single isomer, unassigned) [Crystal Form 2]
Response: 0.88
